Data credit: patent US12441768B2

# experimentalSystem: Wnt-responsive promoter (TCF/LEF)
# methodSummary: Wnt-dependent luciferase reporter assay
pEC50: −log10 of the molar value. Where a SMILES comes first, the peptide text is derived from it.
metric: pEC50

{"molecule": "CC[C@H](C)[C@H](NC(=O)[C@H](CC(C)C)NC(=O)[C@H](Cc1ccccc1)NC(=O)[C@@H](N)Cc1c[nH]c2ccccc12)C(=O)N[C@@H](CO)C(=O)N[C@@H](Cc1ccccc1)C(=O)N[C@@H](Cc1c[nH]c2ccccc12)C(N)=O [compound 98] (H-WFLISFW-NH2)", "valueMeasured": "< 4.52"}
{"molecule": "CC[C@H](C)[C@H](NC(=O)[C@H](CC(C)C)NC(=O)[C@@H](NC(=O)[C@H](Cc1c[nH]c2ccccc12)NC(=O)[C@H](CCSC)NC(=O)C(C)(C)C)[C@@H](C)CC)C(=O)N[C@@H](CO)C(=O)N[C@@H](Cc1ccccc1)C(=O)N[C@@H](Cc1c[nH]c2ccccc12)C(=O)NCC(=O)O [compound 225] (HELM PEPTIDE1{[CC(C)(C)C(=O)[*:2]].M.W.I.L.I.S.F.W.G}$$$$V2.0)", "valueMeasured": "> 5.12"}
{"molecule": "CC[C@H](C)[C@H](NC(=O)[C@H](CC(C)C)NC(=O)[C@H](Cc1ccccc1)NC(=O)[C@H](Cc1c[nH]c2ccccc12)NC)C(=O)N[C@@H](CO)C(=O)N[C@@H](Cc1ccccc1)C(=O)N[C@@H](Cc1c[nH]c2ccccc12)C(N)=O [compound 102] (HELM PEPTIDE1{[meW].F.L.I.S.F.W.[am]}$$$$V2.0)", "valueMeasured": "4.65 to 4.82"}

So what's the measured pEC50 for this one? CC[C@H](C)[C@H](NC(=O)[C@H](CC(C)C)NC(=O)[C@@H](NC(=O)[C@H](Cc1c[nH]c2ccccc12)NC(=O)[C@@H](N)CCSC)[C@@H](C)CC)C(=O)N[C@@H](CCO)C(=O)N[C@@H](Cc1ccccc1)C(=O)N[C@@H](Cc1c[nH]c2ccccc12)C(=O)NCC(=O)O [compound 144] (HELM PEPTIDE1{M.W.I.L.I.[O=C([C@H](CCO)N[*:1])[*:2]].F.W.G}$$$$V2.0)
> 5.12

Okay, and CC[C@H](C)[C@H](NC(=O)[C@H](CC(C)C)NC(=O)[C@H](Cc1ccccc1)NC(=O)[C@H](Cc1c[nH]c2ccccc12)NC(=O)[C@@H](N)CCSC)C(=O)N[C@@H](CO)C(=O)N[C@@H](Cc1ccccc1)C(=O)N[C@@H](Cc1c[nH]c2ccccc12)C(=O)N[C@@H](C)C(=O)O [compound 162] (H-MWFLISFWA-OH) ?
4.82 to 5.12

Now this one: CC[C@H](C)[C@@H]1NC(=O)[C@H](CC(C)C)NC(=O)[C@H](Cc2ccc(O)cc2)NC(=O)[C@H](Cc2c[nH]c3ccccc23)NC(=O)[C@H](CCSC)NC(=O)[C@H](CCCNC(=N)N)NC(=O)[C@H](CO)NC(=O)[C@@H](N)CCCCNC(=O)[C@H](Cc2c[nH]c3ccccc23)NC(=O)[C@H](Cc2ccccc2)NC(=O)[C@H](CO)NC1=O [compound 32] (HELM PEPTIDE1{K.S.R.M.W.Y.L.I.S.F.W}$PEPTIDE1,PEPTIDE1,1:R3-11:R2$$$V2.0)
< 4.52
